Tgt: human cloned 5-HT6 receptors (Homo sapiens, UniProt P50406)
Construct: expressed in transfected cells; host or cells: Hela cells
Sequence (P50406 whole entry): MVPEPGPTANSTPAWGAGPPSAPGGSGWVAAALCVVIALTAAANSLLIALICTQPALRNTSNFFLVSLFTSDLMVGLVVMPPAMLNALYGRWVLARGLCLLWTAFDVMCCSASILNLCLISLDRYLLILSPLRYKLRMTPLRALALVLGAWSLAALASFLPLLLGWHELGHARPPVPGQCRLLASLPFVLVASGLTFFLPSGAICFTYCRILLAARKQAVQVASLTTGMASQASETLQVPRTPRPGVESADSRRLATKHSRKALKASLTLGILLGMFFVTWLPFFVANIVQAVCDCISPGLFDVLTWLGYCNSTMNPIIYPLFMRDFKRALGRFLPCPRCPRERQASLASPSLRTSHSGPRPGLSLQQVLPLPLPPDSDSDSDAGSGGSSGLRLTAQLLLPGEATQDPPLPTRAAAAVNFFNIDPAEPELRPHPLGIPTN
Experimental details: 5-HT6 binding affinity, [3H]-LSD displacement on membranes of Hela cells expressing human cloned 5-HT6 receptors
pKi: −log10 of the molar value.
Response key: Met means pKi >= 8; Not met means pKi < 8.

Some solved cases for reference:
COc1cccc(S(=O)(=O)n2cc(CCN)c3ncccc32)c1: Met
CN(C)CCc1cn(S(=O)(=O)c2cccc(F)c2)c2ncccc12: Not met
NCCc1cn(S(=O)(=O)c2cccc(Cl)c2Cl)c2ccncc12: Not met
COc1ccc(S(=O)(=O)n2cc(CCN(C)C)c3cccnc32)cc1OC: Not met
NCCc1cn(S(=O)(=O)c2cccc(C(F)(F)F)c2)c2cccnc12: Met
Cc1ccc(S(=O)(=O)n2cc(CCN)c3cccnc32)cc1Cl: Met

Query string: Hi, just wondering whether `COc1cccc(S(=O)(=O)n2cc(CCN(C)C)c3cccnc32)c1` shows pKi of 8 or higher.
Result string: Not met

Query string: Reported pKi reaches at least 8 for `NCCc1cn(S(=O)(=O)c2sc(Cl)cc2Br)c2ncccc12` ?
Result string: Not met

Query string: Would you say `Cc1cc(S(=O)(=O)n2cc(CCN(C)C)c3cccnc32)c(C)cc1Cl` shows pKi at minimum 8?
Result string: Not met

Query string: Determine whether this molecule has pKi no lower than 8: `NCCc1cn(S(=O)(=O)c2c(Cl)nc3sccn23)c2cccnc12`
Result string: Met

Query string: Record `CN(C)CCc1cn(S(=O)(=O)c2c(Cl)nc3ccccn23)c2ncccc12` ; criterion: pKi no lower than 8. Met?
Result string: Not met

Query string: # check: pKi of `NCCc1cn(S(=O)(=O)c2ccc(Cl)cc2)c2ncccc12` is greater than or equal to 8
Result string: Not met

Query string: Reported pKi at or above 8? `CC(C)c1ccc(S(=O)(=O)n2cc(CCN)c3cccnc32)cc1`
Result string: Not met

Query string: Has `CN(C)CCc1cn(S(=O)(=O)c2ccc(F)cc2Cl)c2ncccc12` a recorded pKi greater than or equal to 8?
Result string: Not met

Query string: Please indicate if the recorded pKi for `CN(C)CCc1cn(S(=O)(=O)c2cccc(C(F)(F)F)c2)c2ncccc12` meets or exceeds 8.
Result string: Not met

Query string: Check this molecule for pKi at or above 8: `NCCc1cn(S(=O)(=O)c2cccc(F)c2)c2cccnc12`
Result string: Met

This collection of values is drawn from patent US7297705B2.
